Catalogue of molecules with associated pIC50
# Tested System: Cholecystokinin receptor type A (Cavia porcellus)
# Sequence (Q63931 whole entry): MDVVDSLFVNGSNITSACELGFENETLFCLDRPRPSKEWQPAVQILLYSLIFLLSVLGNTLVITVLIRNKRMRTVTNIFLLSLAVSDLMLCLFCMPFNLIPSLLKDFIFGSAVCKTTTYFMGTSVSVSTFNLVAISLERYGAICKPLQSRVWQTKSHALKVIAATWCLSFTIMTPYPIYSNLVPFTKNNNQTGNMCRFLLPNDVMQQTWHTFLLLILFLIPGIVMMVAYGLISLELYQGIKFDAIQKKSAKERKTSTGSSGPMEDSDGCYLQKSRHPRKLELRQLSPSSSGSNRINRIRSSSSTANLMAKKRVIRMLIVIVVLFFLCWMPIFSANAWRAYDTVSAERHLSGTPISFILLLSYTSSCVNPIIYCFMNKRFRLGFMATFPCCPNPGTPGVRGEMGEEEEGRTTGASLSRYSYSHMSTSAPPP
# Experiment Description: Compound was evaluated for the binding affinity against Cholecystokinin type A receptor in pancreatic acinar cell
As a rule, pIC50 stands for the negative log10 of the concentration, concentration in M.

Some molecules with known pIC50 results, for comparison:
CCCCCN(CCCCC)C(=O)[C@@H](CCC(=O)O)NC(=O)c1ccc2ccccc2n1 = 7.20
CCCCCN(CCCCC)C(=O)[C@@H](CCC(=O)O)NC(=O)c1cccc2ccccc12 = 6.49

q: Check the records and state pIC50 for CCCCCN(CCCCC)C(=O)[C@@H](CCC(=O)O)NC(=O)c1ccc2ccccc2c1 [AMIGLUMIDE]
a: 7.92

---

Catalogue of compounds with associated IC50
# Tested System: Gastrin/cholecystokinin type B receptor (Cavia porcellus)
# Sequence (H0VZC5 1-426): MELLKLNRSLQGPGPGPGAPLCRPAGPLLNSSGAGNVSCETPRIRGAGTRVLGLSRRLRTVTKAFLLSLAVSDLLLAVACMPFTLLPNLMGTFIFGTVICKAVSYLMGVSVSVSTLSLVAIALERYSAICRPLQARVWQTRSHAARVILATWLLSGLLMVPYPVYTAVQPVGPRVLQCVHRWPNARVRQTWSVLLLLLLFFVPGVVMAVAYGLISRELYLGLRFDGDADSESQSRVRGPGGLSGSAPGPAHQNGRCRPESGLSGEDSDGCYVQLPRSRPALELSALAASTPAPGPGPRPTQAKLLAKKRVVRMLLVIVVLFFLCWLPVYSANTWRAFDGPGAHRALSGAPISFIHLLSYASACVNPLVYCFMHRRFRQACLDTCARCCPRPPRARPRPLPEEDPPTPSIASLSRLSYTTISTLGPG
# Experiment Description: Compound was evaluated for the binding affinity against Cholecystokinin type A receptor in cortical cells.
# Format: cell-based
Field: numeric (µM). Do not append units.

Some compounds with known IC50 results, for comparison:
CCCCCN(CCCCC)C(=O)[C@@H](CCC(=O)O)NC(=O)c1ccc2ccccc2c1 [AMIGLUMIDE] = 4.2
CCCCCN(CCCCC)C(=O)[C@@H](CCC(=O)O)NC(=O)c1c[nH]c2ccccc12 = 32

Now for the compound whose IC50 we want.
q: Check the records and state IC50 for "CCCCCN(CCCCC)C(=O)[C@@H](CCC(=O)O)NC(=O)c1cccc2ccccc12"
a: 11

---

# Tested System: Cholecystokinin receptor type A (Cavia porcellus)
# Experiment Description: Compound was evaluated for the binding affinity against CCK A receptor in pancreatic acinar cell
Measure: IC50 (nM)
Field: numeric (nM). Do not append units.

CCCCCN(CCCCC)C(=O)[C@H](CCC(=O)O)NC(=O)c1ccc(Cl)c(Cl)c1 = 4900

q: Write down the reported IC50 (system: Cholecystokinin receptor type A (Cavia porcellus)) of "CCCCCN(CCCCC)C(=O)[C@@H](CCC(=O)O)NC(=O)c1ccc2ncccc2c1"
a: 31
